Tested on: 786-0 renal
Assay: NCI-60 one-dose screen, 48 h
Conditions: 10 µM unless noted
Procedure: Cells are grown in 96 well plates and exposed to the test compound for 48 hours. Compounds are tested at a single concentration, which is 10^-5 M for most compounds. The reported endpoint is percent growth (GI% or GIPRCNT), where numbers from 0 - 100% represent growth inhibition, and numbers from -100% - 0 represent cell death. For example, a value of 40 represents 60% growth inhibition. A value of 0 means no net growth occurred over the course of the experiment. […]
The panel holds about 83,000 compounds, 20% with a hit somewhere; the sample as a whole holds those more often. The source made the active and inactive calls. The calls were made as follows: active = growth percent below 10; inactive = the rest.
The reply should be one of these categories: 1 = active, 0 = inactive

O=C1CCC(=O)CC1	0
O=C1C=CC2(NN=C(c3ccccc3)N2c2ccccc2)c2cccc(O)c21 (stereo not given)	0
Cc1cc(Nc2nc(N[C@@H](C)c3ncc(F)cn3)ncc2Cl)n[nH]1	0
CCOC(=O)C1=C(C)N=C2Sc3cc(OC(F)(F)F)ccc3N2[C@H]1c1ccccn1	0
C=C1C(=O)O[C@H]2[C@H]1CC/C(Cn1cc(-c3cc(C)c(C)cc3C)nn1)=C\CC[C@@]1(C)O[C@@H]21	1

QUERY: Write down the call the test reported for this molecule. Item: CC(C)(O)CC(=O)NCCn1ccc2ncnc(Nc3ccc(Oc4cccc(C(F)(F)F)c4)c(Cl)c3)c21
RESULT: 0

QUERY: Write down the call the test reported for this molecule. Item: N#Cc1c(NC(=O)c2ccco2)[n+]([O-])c2cc(F)c(F)cc2[n+]1[O-]
RESULT: 0

QUERY: Write down the call the test reported for this molecule. Item: CCCCCCCC(=O)SCC/C=C/[C@@H]1CC(=O)NCc2cccc(n2)C2=N[C@@](C)(CS2)C(=O)N[C@@H](C(C)C)C(=O)O1
RESULT: 0

QUERY: Write down the call the test reported for this molecule. Item: COC(=O)[C@]12CC[C@@H](C)[C@H](C)[C@@H]1C1=CC[C@@H]3[C@@]4(C)C(C#N)=CC(C)=C4CC[C@@]3(C)[C@]1(C)CC2
RESULT: 0

QUERY: Write down the call the test reported for this molecule. Item: COc1ccc(-c2nocc2-c2cc(OC)c(OC)c(OC)c2)cc1
RESULT: 0

QUERY: Write down the call the test reported for this molecule. Item: CCCCCc1ccc(C)cc1OC(=O)CCl
RESULT: 0

QUERY: Write down the call the test reported for this molecule. Item: CCN(CC)CCCC(C)Nc1cc(-c2ccc(C(F)(F)F)cc2)c(C#N)c2nc3ccccc3n12 (stereo not given)
RESULT: 1

QUERY: Write down the call the test reported for this molecule. Item: C=CC(=O)Nc1cccc(Oc2nc(Nc3ccc(N4CCN(C)CC4)cc3)nc3ccsc23)c1
RESULT: 1

QUERY: Write down the call the test reported for this molecule. Item: COc1cc2c(c(OC)c1)C1c3ccccc3NC(=O)N1CC2 (stereo not given)
RESULT: 0

QUERY: Write down the call the test reported for this molecule. Item: CCCCCCCCCCCC[n+]1ccccc1
RESULT: 1

QUERY: Write down the call the test reported for this molecule. Item: CCN(CCCOc1ccc2c(Nc3cc(CC(=O)Nc4cccc(F)c4)[nH]n3)ncnc2c1)CCOP(=O)(O)O
RESULT: 0

QUERY: Write down the call the test reported for this molecule. Item: C#Cc1cccc(Nc2ncnc3cc(OC)c(OCCCCCCC(=O)NO)cc23)c1
RESULT: 1

QUERY: Write down the call the test reported for this molecule. Item: COc1ccc(-c2cc3c(C)nc(N)nc3n(C3CCC(OCCO)CC3)c2=O)cn1 (stereo not given)
RESULT: 1

QUERY: Write down the call the test reported for this molecule. Item: COc1cc(NC2CCC(=O)N2c2ccc(Cl)cc2Cl)cc(OC)c1OC (stereo not given)
RESULT: 0

QUERY: Write down the call the test reported for this molecule. Item: CCc1nc2cc(F)c(/C=C/C(=O)NO)cc2c(=O)n1CCc1ccccc1
RESULT: 1
